tested on: MOLT-4; assay: NCI tumour cell line growth inhibition, 48 h
Active and inactive are the calls of the source. No stated cut-off is given here; in the data, active = GI50 up to about 1.1 µM and inactive = higher.
# output must be one of active, inactive

Query: Name the outcome recorded for Cc1ccccc1/N=N/c1c(O)ccc2ccccc12 in the assay.
Response: inactive

Query: // return assay outcome for COc1ccc(C(=O)c2ccc(-n3c4ccccc4c4ccc5c(c43)C(=O)C=CC5=O)cc2)cc1
Response: active

Query: Per the assay record, what outcome was assigned to COc1cc(OC)cc(Oc2nc3cc(F)c(F)cc3nc2-c2ccccc2)c1 ?
Response: inactive

* * *

system: SR; assay: NCI tumour cell line growth inhibition, 48 h
The source made the active and inactive calls. No stated cut-off is given here; in the data, active = GI50 up to about 1.1 µM and inactive = higher.
The reply should name one outcome from y = active, n = inactive

Query: For Clc1cc(OCc2nn3c(Cc4ccccc4)nnc3s2)c(Cl)cc1OCc1nn2c(Cc3ccccc3)nnc2s1 , which call appears in the assay record?
Response: y

Query: Short answer needed: outcome of this test for CCOc1ccc(/C=N\N2C(=O)c3ccccc3C2=O)cc1 ?
Response: n

Query: Hi team, can someone confirm the assay call for O=C(NCc1cccc2ccccc12)N/N=C\c1ccc(Cl)cc1 ?
Response: n

Query: Kindly provide the recorded test outcome for the following compound: Nc1ccc2c(O)cc(O)nc2n1
Response: n

Query: For Cn1nc2ccc(Nc3cc(=O)[nH]c4ccc5nn(C)nc5c34)cc2n1 , which call appears in the assay record?
Response: n
